# tested target: T1, 4H2729-bN
# T1 chain: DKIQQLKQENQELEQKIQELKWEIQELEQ
# protocol: two-hybrid library CCNG1;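 note: natural log of median RNA to DNA barcode read ratio; higher means stronger binding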
measure: interaction score
Answer using only a numeral; do not append any unit.

Use these answered entries as a reference point.
> print(dat)
                                     binder  value.measured
1  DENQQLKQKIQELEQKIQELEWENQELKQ [4H1828-bN]          -0.165
2  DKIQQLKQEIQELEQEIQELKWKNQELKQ [4H2576-bN]            1.74
3  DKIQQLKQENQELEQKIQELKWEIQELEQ [4H2729-bN]           -1.82
4  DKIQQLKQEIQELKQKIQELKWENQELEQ [4H2667-bN]          -0.251
5  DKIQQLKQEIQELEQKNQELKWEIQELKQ [4H2618-bN]            1.51
6  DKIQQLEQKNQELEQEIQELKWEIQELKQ [4H2442-bN]           0.367

What interaction score value was documented for this binder, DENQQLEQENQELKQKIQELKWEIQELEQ [4H1257-bN] ?
-0.506

Query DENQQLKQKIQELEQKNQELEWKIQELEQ [4H1845-bN] next
-0.274

Then what about the binder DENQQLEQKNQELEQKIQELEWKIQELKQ [4H1446-bN] ?
0.529

Where do the numbers come from? From paper PMC10397247.
